Hey, just so you know, these numbers are from paper PMC11843339.

# SUBJECT OF TEST: human IMPDH1 (Homo sapiens, UniProt P20839)
# Sequence (P20839 whole entry): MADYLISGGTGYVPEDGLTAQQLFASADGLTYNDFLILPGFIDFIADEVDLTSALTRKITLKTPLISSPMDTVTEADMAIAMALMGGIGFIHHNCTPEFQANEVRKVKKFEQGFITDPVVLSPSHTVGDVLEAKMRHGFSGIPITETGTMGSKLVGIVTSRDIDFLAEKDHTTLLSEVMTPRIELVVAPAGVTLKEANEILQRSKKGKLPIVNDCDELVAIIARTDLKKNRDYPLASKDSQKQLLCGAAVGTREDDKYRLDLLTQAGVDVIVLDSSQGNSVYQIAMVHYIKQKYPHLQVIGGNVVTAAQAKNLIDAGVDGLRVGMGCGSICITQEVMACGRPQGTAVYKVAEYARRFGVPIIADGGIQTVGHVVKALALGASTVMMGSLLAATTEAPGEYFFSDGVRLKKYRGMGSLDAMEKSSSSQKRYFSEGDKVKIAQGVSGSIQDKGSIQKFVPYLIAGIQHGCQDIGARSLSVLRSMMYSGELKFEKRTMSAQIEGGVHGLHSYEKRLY
# ASSAY TEXT: IMPDH1 inhibitory assay
# Type: biochemical
# CONDITION DETAILS: read-out: Ki,app (apparent tight-binding inhibition constant); IMPDH1; IMP 100 μM, NAD+ 200 μM; NO = No inhibition observed
pKi: −log10 of the molar value.

| RECORD SMILES | pKi |
| --- | --- |
| COc1c(C)c2c(c(O)c1C/C=C(\C)CCC(=O)O[Si](c1ccccc1)(c1ccccc1)c1ccccc1)C(=O)OC2 | < 4.00 |

----------
# ASSAY TEXT: MTT cell viability, normal osteoblast cells hFOB 1.19
# Format: cell-based, human
# CONDITION DETAILS: human, hFOB 1.19 normal osteoblast cells
MEASUREMENT TYPE: viability at 72 h, 0.1 µM (%)

| COMPOUND | REPORTED |
| --- | --- |
| COc1c(C)c2c(c(O)c1C/C=C(\C)CCC(=O)O)C(=O)OC2 [MPA 1, Mycophenolic acid, reference compound] | 74.3 |
| COc1c(C)c2c(c(O)c1C/C=C(\C)CCC(=O)O[Si](c1ccccc1)(c1ccccc1)c1ccccc1)C(=O)OC2 | 93.9 |

----------
# System: osteosarcoma cancer cell lines (MNNG/HOS, U2OS, 143B, SaOS-2)
# ASSAY TEXT: MTT cytotoxicity, summary over osteosarcoma cell lines
# Assay type: cell-based, human
# CONDITION DETAILS: Homo sapiens, 72 h, read-out: IC50 range against all OS cell lines
pIC50: −log10 of the molar value.
Measured pIC50, listed per entry.

| COMPOUND | pIC50 |
| --- | --- |
| COc1c(C)c2c(c(O[Si](c3ccccc3)(c3ccccc3)C(C)(C)C)c1C/C=C(\C)CCC(=O)O[Si](c1ccccc1)(c1ccccc1)C(C)(C)C)C(=O)OC2 | 5.23 to 5.93 |
| COc1c(C)c2c(c(O)c1C/C=C(\C)CCC(=O)OC(c1ccccc1)(c1ccccc1)c1ccccc1)C(=O)OC2 | 5.29 to 6.17 |
| COc1c(C)c2c(c(O[Si](C)(C)C(C)(C)C)c1C/C=C(\C)CCC(=O)O[Si](C)(C)C(C)(C)C)C(=O)OC2 | 5.27 to 5.87 |
| COc1c(C)c2c(c(O)c1C/C=C(\C)CCC(=O)O)C(=O)OC2 [MPA 1, Mycophenolic acid, reference compound] | 5.40 to 6.19 |
| COc1c(C)c2c(c(O)c1C/C=C(\C)CCC(=O)O[Si](c1ccccc1)(c1ccccc1)c1ccccc1)C(=O)OC2 | 5.64 to 6.19 |
| COc1c(C)c2c(c(O[Si](C(C)C)(C(C)C)C(C)C)c1C/C=C(\C)CCC(=O)O[Si](C(C)C)(C(C)C)C(C)C)C(=O)OC2 | 4.19 to 5.17 |

----------
# ASSAY TEXT: MTT cell viability, normal osteoblast cells hFOB 1.19
# Format: cell-based, human
# CONDITION DETAILS: human, hFOB 1.19 normal osteoblast cells
MEASUREMENT TYPE: viability at 72 h, 1 µM (%)

| COMPOUND | MEASUREMENT TYPE | REPORTED |
| --- | --- | --- |
| COc1c(C)c2c(c(O)c1C/C=C(\C)CCC(=O)O[Si](c1ccccc1)(c1ccccc1)c1ccccc1)C(=O)OC2 | viability at 72 h, 1 µM | 92 |
| COc1c(C)c2c(c(O)c1C/C=C(\C)CCC(=O)O)C(=O)OC2 [MPA 1, Mycophenolic acid, reference compound] | viability at 72 h, 1 µM | 20.1 |

----------
# ASSAY TEXT: MTT cell viability, normal osteoblast cells hFOB 1.19
# Assay type: cell-based, human
# CONDITION DETAILS: human, hFOB 1.19 normal osteoblast cells
Measured viability at 72 h, 100 µM, listed per entry.
MEASUREMENT TYPE: viability at 72 h, 100 µM (%)

| COMPOUND | REPORTED |
| --- | --- |
| COc1c(C)c2c(c(O)c1C/C=C(\C)CCC(=O)O)C(=O)OC2 [MPA 1, Mycophenolic acid, reference compound] | 3.38 |
| COc1c(C)c2c(c(O)c1C/C=C(\C)CCC(=O)O[Si](c1ccccc1)(c1ccccc1)c1ccccc1)C(=O)OC2 | 73.3 |
